Target: EGFR^L858R/T790M/C797S (Homo sapiens, UniProt P00533, C797S/L858R/T790M)
Sequence (P00533 25-1210 T790M/C797S/L858R): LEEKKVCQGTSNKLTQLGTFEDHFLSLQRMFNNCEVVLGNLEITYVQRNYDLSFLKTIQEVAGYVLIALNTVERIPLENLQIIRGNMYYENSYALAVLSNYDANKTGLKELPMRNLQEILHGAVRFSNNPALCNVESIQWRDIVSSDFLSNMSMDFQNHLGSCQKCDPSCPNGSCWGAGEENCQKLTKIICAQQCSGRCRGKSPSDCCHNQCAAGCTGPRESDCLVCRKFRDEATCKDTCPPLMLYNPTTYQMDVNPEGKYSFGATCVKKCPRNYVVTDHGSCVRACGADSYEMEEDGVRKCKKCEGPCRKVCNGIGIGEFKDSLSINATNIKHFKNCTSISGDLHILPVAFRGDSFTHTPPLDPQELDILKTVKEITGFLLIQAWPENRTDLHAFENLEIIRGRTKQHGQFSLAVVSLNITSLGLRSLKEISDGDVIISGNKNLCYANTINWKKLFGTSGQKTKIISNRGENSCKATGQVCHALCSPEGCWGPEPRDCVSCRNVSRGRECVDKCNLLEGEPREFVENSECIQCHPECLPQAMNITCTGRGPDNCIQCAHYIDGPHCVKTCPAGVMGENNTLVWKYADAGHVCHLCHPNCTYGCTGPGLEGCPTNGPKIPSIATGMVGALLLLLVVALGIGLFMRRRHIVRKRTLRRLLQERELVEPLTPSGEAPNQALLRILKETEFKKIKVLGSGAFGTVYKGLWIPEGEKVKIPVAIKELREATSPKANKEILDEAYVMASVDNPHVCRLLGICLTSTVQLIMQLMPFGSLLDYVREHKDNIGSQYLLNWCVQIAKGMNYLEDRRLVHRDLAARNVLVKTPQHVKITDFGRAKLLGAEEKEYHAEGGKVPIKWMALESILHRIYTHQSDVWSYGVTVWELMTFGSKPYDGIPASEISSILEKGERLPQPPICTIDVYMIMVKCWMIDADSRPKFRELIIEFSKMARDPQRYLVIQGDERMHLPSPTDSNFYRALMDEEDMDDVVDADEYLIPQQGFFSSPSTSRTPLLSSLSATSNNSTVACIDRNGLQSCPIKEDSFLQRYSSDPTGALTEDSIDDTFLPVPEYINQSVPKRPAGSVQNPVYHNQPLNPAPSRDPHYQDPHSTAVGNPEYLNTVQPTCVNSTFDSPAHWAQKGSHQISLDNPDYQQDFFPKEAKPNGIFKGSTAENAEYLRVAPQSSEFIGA
Assay: ELISA kinase activity inhibition, EGFR L858R/T790M/C797S
Format: biochemical
Conditions: ATP 5 μM, read-out: The average IC50 value (nM) for inhibiting the activity of different tyrosine kinases, EGFR^L858R/T790M/C797S
Description: Enzyme-Linked Immunosorbent Assay (ELISA) was used to detect the inhibitory effect of compounds on kinase activity. The main experimental steps were as follows: Enzyme reaction substrate Poly (Glu, Tyr)4:1 was diluted with potassium free PBS (10 mM sodium phosphate buffer, 150 mM NaCl, pH 7.2-7.4) to 20 μg/mL, and reacted at 37° C. for 12 hours to 16 hours to coat the enzyme-linked immunosorbent assay plate. […]
MEASURED ATTRIBUTE: IC50 (nM)
I only need the number, in nM, no unit after it.

{"ENTRY SMILES": "CCS(=O)(=O)n1cc2c3ccc(cc31)OCCCn1cc(cn1)-c1cc(c(OC)cc1CN1CCOCC1)Nc1nccc-2n1", "READOUT UNIT": "nM", "IC50": 14.1}
{"ENTRY SMILES": "CCS(=O)(=O)n1cc2c3ccc(cc31)OCCCn1cc(cn1)-c1cc(cc(/C=C/C(C)(C)C)c1N1CCOCC1)Nc1ncc(Cl)c-2n1", "READOUT UNIT": "nM", "IC50": 384}
{"ENTRY SMILES": "CCS(=O)(=O)n1cc2c3ccc(cc31)OCCCn1ccc(n1)-c1cc(c(OC(F)(F)F)cc1N1CCOCC1)Nc1nccc-2n1", "READOUT UNIT": "nM", "IC50": 135}

# context switch: different molecule, same IC50
QUERY: Fill in: IC50 of CCS(=O)(=O)n1cc2c3ccc(cc31)OCCCn1cc(cn1)-c1cc(c(C)cc1N1CCN(C)CC1)Nc1ncc(Cl)c-2n1 is ___
RESULT: 4.3

###

Test system: BaF3 parent cell
Assay: CCK-8 cell proliferation, BaF3 parent cell
Type: cell-based
Settings: Mus musculus, BaF3, 72 h, read-out: Average value of IC50 of inhibition against cells growth, BaF3 parent cell
MEASURED ATTRIBUTE: IC50 (µM)
I only need the number, in µM, no unit after it.

QUERY: Fill in: IC50 of COc1cc(N2CCC(N3CCN(C)CC3)CC2)ccc1Nc1ncc(Cl)c(Nc2ccccc2P(C)(C)=O)n1 [Brigatinib, reference compound] is ___
RESULT: 1.48

###

Measured IC50 values are reported for all entries that follow.
Biological target: EGFR^WT (Homo sapiens, UniProt P00533)
Construct: purchased Eurofins
Sequence (P00533 25-1210): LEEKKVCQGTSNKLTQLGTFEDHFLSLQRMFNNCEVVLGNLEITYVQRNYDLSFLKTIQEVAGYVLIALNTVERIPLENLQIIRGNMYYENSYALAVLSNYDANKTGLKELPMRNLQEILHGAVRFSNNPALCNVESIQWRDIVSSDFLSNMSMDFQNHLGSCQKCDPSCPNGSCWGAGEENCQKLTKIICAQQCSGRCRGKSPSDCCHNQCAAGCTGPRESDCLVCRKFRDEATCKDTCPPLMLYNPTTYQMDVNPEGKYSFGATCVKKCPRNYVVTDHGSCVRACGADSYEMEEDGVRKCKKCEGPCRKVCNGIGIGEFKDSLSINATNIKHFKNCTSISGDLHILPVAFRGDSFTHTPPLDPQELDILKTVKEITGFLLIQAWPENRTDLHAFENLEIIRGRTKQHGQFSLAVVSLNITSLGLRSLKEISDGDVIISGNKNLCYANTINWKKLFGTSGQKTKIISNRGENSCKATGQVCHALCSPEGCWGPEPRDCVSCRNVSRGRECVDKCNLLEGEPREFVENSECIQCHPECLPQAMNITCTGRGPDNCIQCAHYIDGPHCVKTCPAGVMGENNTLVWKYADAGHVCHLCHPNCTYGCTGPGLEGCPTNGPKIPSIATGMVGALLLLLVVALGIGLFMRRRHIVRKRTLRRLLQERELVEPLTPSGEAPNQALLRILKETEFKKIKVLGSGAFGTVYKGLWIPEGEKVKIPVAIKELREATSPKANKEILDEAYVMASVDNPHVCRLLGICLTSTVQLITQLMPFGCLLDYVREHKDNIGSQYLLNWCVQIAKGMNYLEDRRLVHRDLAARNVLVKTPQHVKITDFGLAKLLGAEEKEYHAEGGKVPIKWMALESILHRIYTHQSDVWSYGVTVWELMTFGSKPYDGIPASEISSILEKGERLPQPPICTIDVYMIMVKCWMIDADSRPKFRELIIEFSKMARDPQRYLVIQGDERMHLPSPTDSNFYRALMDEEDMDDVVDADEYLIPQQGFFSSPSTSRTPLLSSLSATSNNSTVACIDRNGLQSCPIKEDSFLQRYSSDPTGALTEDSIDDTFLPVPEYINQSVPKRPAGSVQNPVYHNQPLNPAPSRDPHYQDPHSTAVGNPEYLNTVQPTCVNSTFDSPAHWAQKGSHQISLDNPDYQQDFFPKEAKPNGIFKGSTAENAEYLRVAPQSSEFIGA
Assay: ELISA kinase activity inhibition, wild-type EGFR
Format: biochemical
Settings: ATP 5 μM, read-out: The average IC50 value (nM) for inhibiting the activity of different tyrosine kinases, EGFR^WT

Reference set (2 entries):
{"COMPOUND": "CCS(=O)(=O)n1cc2c3ccc(cc31)OCCCn1cc(cn1)-c1cc(cc(C3CCCC3)c1N1CCOCC1)Nc1ncc(Cl)c-2n1 [HC9001]", "TESTED ON": "EGFR^WT (Homo sapiens, UniProt P00533)", "VAL": "> 1000 nM"}
{"COMPOUND": "CCS(=O)(=O)n1cc2c3ccc(cc31)OCCCn1cc(cn1)-c1cc(c(C)cc1N1CCOCC1)Nc1ncc(Cl)c-2n1 [HC916]", "TESTED ON": "EGFR^WT (Homo sapiens, UniProt P00533)", "VAL": "> 1000 nM"}

QUERY: Fill in: IC50 of CCS(=O)(=O)n1cc2c3ccc(cc31)OCCCn1ccc(n1)-c1cc(c(OC(C)C)cc1N1CCOCC1)Nc1nccc-2n1 [FBH-3-84] is ___
RESULT: > 1000 nM
